Experiment: yeast display, Sf9 membrane polyspecificity reagent, FACS + sequencing; frameworks hold sequencing errors
PROPERTY MEASURED: polyreactivity (PSR sort gate)

QVQLVESGGGLVQAGGSLRLSCDASGITSHWYVMGWYRQAPGKERELVAAINSSGGRTSYADSVKGRFTISRDNAKNTVYLQMNSLKPEYTAVYYCAAGYTHSYFLGATGKVDYWGQGTQVTVSS
low polyreactivity
QVQLVESGGGLVQAGGSLRLSCAPSGSIFGSYAMGWYRQAPGKERELVAAIRRSSASTYYADSVKGRFTISRDNAKNTVYLQMNSLKPEDTAVYYCATQSYSYYGYRYRYAAYDYWGQGTQVTVSS
high polyreactivity
QVQLVESGGGLVQAGGSLRISCAASGFTFNANAMAWYRQAPGKERELVAAISLSGGRTYYADSVKRRFTISRDNAKNTVYLQMNSMKQVDTAVYYCAASPDGSFRRFSRVVSGDYWGQGTQVTVSS
high polyreactivity
QVQLVESGGGLVQAGGSLRLSCAASGRTFGLYAMGWYRPAPGKERELVADINGSGTRTYYADSVKGRFTISRDYAKNTVYLQMNSLKPEDTAVYYCYGRYHWLYYWGQGTQVTVSS
high polyreactivity
QVQLVESGGGLVQAGGSLRLSCAASGSTFGFNPMGWYRQAPGKERELVAAITGSGGSTYYADSVKGRFTISRDNAKNTVYLQMNSLKPEDTAVYYCARETYGDYVHYDYWGQGTQVTVSS
low polyreactivity

---

Experiment: yeast display, Sf9 membrane polyspecificity reagent, FACS + sequencing; frameworks hold sequencing errors
PROPERTY MEASURED: polyreactivity (PSR sort gate)

QVQLVESGGGLVQAGGSLRLSCAASGRIFGLNAMGWSRQAPGKERELVASITYSGGSTYYADSVKGRFTISRDNAKNTVYLQMNSLKPEDTAVYYCAARIIVDDVGTKYYYWGQGTQVTVSS
high polyreactivity
QVQLVESGGGLVQAGGSLRLSCAASGRLLPIYAMGWYRQAAGKERELVATISWTSDSTYYADSVKGRFTISRDNAKNTVYLQMNSLKPEDTAFYYCAREYTYNYASTVIYDHWGQGTQVTVSS
low polyreactivity
QVQLVESGGGLVQAGGSLRLSCAASGRTSVINAMGWYRQATGKERELVAAITKRGGSTYYADSVKGRFTISRDNAKNTVYLQMNSLKPEDTAVYYCAKYAISIQYDSWGQGTQVTVSS
high polyreactivity
QVQLVESGGGLVQAGGSLRLSCAASGRIFGIYAMGWYRQAPGKERELVADIDVSDGSTYYADSVKGRFTISRDNAKNTVYLQMNSLKPEDTAVYYCNAEDSSRWYDWYLHDYWGQGTQVTVSS
high polyreactivity
QVQLLESGGGLVQAGVSLRLSCAASGRIFPYNAMGRYRQAAGKVREFVAAIYYSGGRTYYADSVKGRFTITRDNAKNTVYIQMNSLKPEDTAVYFCDISRYDYTKTEGGYWGQGTQVTVSS
low polyreactivity
QVQLVESGGGLVQAGGSLRLSCAASGNTFNPNAMGWYRQAPGKERELVAVIRFRGGSTYYADSVKGRFTISRDNAKNTVYLQMNSLKPEDTAVYYCAADFLYYYLRYYYWGQGTQVTVSS
high polyreactivity
QVQLVESGGGLVQAGGILRLSCAASGFIFTYYAKGWYRQAPGKEMELVAAISWSGGSTYYADSVKGRFTISRDNAKNTVYLLMNSLKPEDTAVYYCAVDLHYSRGPRDAQYRYYYWGHGTQVTVSS
high polyreactivity
QVQLVESGGGLVQAGGSLRLSCAASGSIFNRNAMGWYRQAPGKERELVAVISWTGDGTYYADSVKGRFTISRDNAKNTVYLQMNSLKPEDTAVYYCAARWYVQFYHRPVSKRYYWGQGTQVTVSS
high polyreactivity
QVQLVESGGGLVQAGGSLRLSCAASGSTFSLNDMGWYRQAPGKERQLVAAITGRGTRTYYADSVKGRFTISRDNAKNNVYLQMNSLKPEDTAVYYCAIDYPRGSPYGYNYWVQGTQVTVSS
high polyreactivity
QVQLVESGGGLVQAGGSLRLSCAASGRIFADYAMGWYRQAPGKEREMVADIRQSGGRTYYADSVKGRFTISRDNAKNTVYLQMNSLKPEDTAVYYCATEYGSLGDYSGKYDYWGQGTQVTVSS
low polyreactivity
QVQLVESGGGLVQAGGSLRLSCAASGRTFRYYAMGWYRQAPGKERELVADISSTGRTYYADSVKGRFTISRDNAKNTVYLQMNSLKPEDTAVYYCNADYFFEFDYWGQGTQVTVSS
low polyreactivity

---

Test: yeast display, Sf9 membrane polyspecificity reagent, FACS + sequencing; frameworks hold sequencing errors
PROPERTY MEASURED: polyreactivity (PSR sort gate)

QVQLVESGGGLVQAGGSLRLSCADSGRTFSTYAMGWYRQAPGKERELVAAISSGGGRTYYADSVKGRFTISRDNAKNTVYLQINSLKPEDTAVYYCAADRYFRSRRSYEYWGQGTQVTVSS
low polyreactivity
QVHLVESGGGLVQAGGSLRLSCAASGSIFVYNSMGWYRQAPGKEMELVAGITFIGGSTYYADSVKGRFTISRDNAKNTVYLQKNSLKPEDTAVYYCNADVAPGIFYGYDSWGQGTQVTVSS
low polyreactivity
QVQLVESGGGLVQAGGSLRLSCAASGSTFNKYTMGWYRQAPGKERELVAAITSGDSTYYADSVKGRFTISRDNAKNTVYLQMNSLKPEDTAVYYCAADVRYFDPFDWWGSLVLAYDYWGQGTQVTVSS
low polyreactivity
QVQLVESGGGLVQAGGSLRLSCAASGSTFVIKAMGWYRQAPGKERELVAAITSGGDTNYADSVKGRFTISRDNSKYTVYLQMNSLKPEDTALYYCNARDGGQGNYSARYDYWGHGTQVTVSS
low polyreactivity
QVQLLESGGGLVQAGGSLRLSCAASGSTFYCYTMGWYRQAPGKERELVARISSSGSTNYADSVKGRFTISRDNAKNTVYLQMNSLKPEDTAVYYCNKDWIYRGYDYWGQGTQVTVSS
high polyreactivity
QVQLVESGGGLVQAGGSLRLSCAASGRIFKYYAMGWYRQAPGKERELVSTISRGGGSTFYADSVKGRFTISRDNAKNTVYLQMNSLKPEDTAVYYCAVDVTFKRWYSTASSTHDYWGQGTQVTVSS
high polyreactivity
QVQLVESGGGLVQAGGSLRLSCAASGFIFAYNAMGWYRQAPGKERELVAAISWSGGSTYYADSVKGRFTISRDNAKNTVYLQMNSLKPEDTAVYYCNAFSYYGARYDYWGLGTQVTVSS
high polyreactivity
QVQLVESGGGLVQAGGSLRLICAASGNTFTGYVMGWNRQAPGKEREYVAAIRSGGSTYYADSVKGRFTISRDNAKNTVYLQMNSLKPEDTSVYYCAKCVTPYRTSAYGYWGQGTQVTVSS
high polyreactivity
QVQLVESGGGLVQAGGSLRLSCAASGSTFYANAMGWYRQAPGKERELVAAISYSGGGTNYADSVKGRFTISRDNAKNTVYLQMISLKPEDTAVYYCAKRRDYDRYRYKKTSSVRGDYWGQGTQVTVSS
low polyreactivity
QVQIVESGGGLVQAGGSLRLSCAASGRIFTYNAMGWSRQAPGKERELVAAITRGGTTNYADSVKVRFTISRDNAKNTVYLQMNSLKPEDTAVSYCARAGAHPWWSRSTMYYWGQGTQVTVSS
low polyreactivity
QVQLEESGGGLVQAGGSLRLSCAASGSTFYVYAMGWYIQAPGKERELVAAITDSGGSTYADSVKGRFTISRDNAKNTVYLQMNSLKPEDTAVYADSTYTWYYYYWGQGTQVTVSS
low polyreactivity
QVQLVESGGGLVQSGGSLRLSCAASGFTFRFYAMGWYSQAPGKEREMVAAITSSGGSTFYADSVKGRFTISRDNAKNTVYLQMNSLKPEDTAVYYCAASVGREVGWGQGTQVTVSS
high polyreactivity
QVQLVESGGGLVQAGGSLRLSCAASGFTFLINAMGWYRQAPGKERELVAAIRSGGSTNYADSVKGRFTISRDNAKNSVYFQMNSLKPEDTAVYYCAARRYYPYKYRYGYWGQGTQVTVSS
high polyreactivity
QVQLVETGGGLLQAGGSLRLSCAASGFTFDFYAMGWYRQAPGKERELVAAINWSGSSTYYADSVKGRFTISRDNAKNTVYLQMNSLKPEDTAVYYCAAQVYYTLFPDVYTMYYWGQGTQVTVSS
high polyreactivity
QVQLVESAGGLVQAGGSLRLSCAASGRIFHKNAMGWYRQAPGKERELVATINYGGSSTYYADSVKGRFTISRDNAKNTVYLQMNSLKPEDTAVYYCAAAPEYLTDHAYWGQGTQVTVSS
low polyreactivity
QVQLVESGGGLVQAGGSLRLSCAASGRIFYTYVMGWYIQAPGKERELVASISSSGGSTNYADSVKGRFTISRDNAKNTVYLQMNSLKPEDTAVYYCNKDYIHVSYREDYWGQGTQVTVSS
low polyreactivity
QVQLVESRGVLVQAGGSIRLSCAASGFSIDYYAMGWYRPAPGKERELVAAITTSGGRTYYADSVKGRFTIARDYAKNTVYLQMNSLKPEDTAVYYCAVVTWIYGTRFNYWGQGTQVTVSS
high polyreactivity
QVQLVESGGGLVQAGGSLRLSCAASGIIFSVYAMGWYRQAPGKERELVAAITWSGSRTYYADSVKGRFTISRDNAKNTVYLQMNSLKPEDTAVYYCATVFRGFVEYEYWGQGTQVTVSS
low polyreactivity
QVQLVESGGGLVQAGGSLRLSCAASGITFYGYDMGWFRQAPGKERELVASSTYYADSVKGRFTISRDNAKNTVYLQMNSLKPEDTAVYYCITVYYQWVTYGYWGQGTQVTVSS
high polyreactivity
QVQLVESGGGLVQAGGSLRLSCAASGGTFRYYAMGWYRQAPGKEREFVAAITSSGGSTYYADSVKGRFTISRDNAKKTVYLQMNRLKPEDTAGYYCATDNPFLWWFRPDQHGMGYWGQGTQVTVSS
low polyreactivity
QVQLVESGGGLVQAGGSLRLSCAASGSIFFYAMGWYRPAPGKERELVAAISWRGGSTYYADSVKGRFTISRDNAKNTVYLQMNSLKPEDTAVYYCAKATRRYDVYTYGYWGQGTQVTVSS
high polyreactivity

Hey, just so you know, these numbers are from the nanobody polyreactivity screen of Harvey et al. (2022).
